Observed MIC for Saur 9213, reported per entry below.
Field format: number, assumed µg/mL, no unit text.

Please review the entries below; each comes with its answer.
[
  {
    "compound": "CC(=O)NC[C@H]1CN(c2ccc(C3CCNC(=O)C3)cc2)C(=O)O1 (some centres unmarked)",
    "unit.spec": "µg/mL",
    "measured": 4
  },
  {
    "compound": "CCC(=O)NC[C@H]1CN(c2ccc(C3CCNC(=O)C3)cc2)C(=O)O1 (some centres unmarked)",
    "unit.spec": "µg/mL",
    "measured": 8
  }
]

Query string: Value wanted: MIC (Saur 9213) of entry O=C1CCC(c2c(F)cc(N3C[C@H](Cn4ccnn4)OC3=O)cc2F)CN1 (some centres unmarked)
Result string: 2

Query string: Further, for O=C1CCC(c2ccc(N3C[C@H](CNC(=O)C(F)F)OC3=O)cc2F)CN1 (some centres unmarked) ?
Result string: 4

Query string: Further, for O=C1CC(c2ccc(N3C[C@H](CNC(=S)C(F)F)OC3=O)cc2F)CCN1 (some centres unmarked) ?
Result string: 1

Query string: Further, for O=C1CCC(c2ccc(N3C[C@H](CNC(=S)C(F)F)OC3=O)cc2F)CN1 (some centres unmarked) ?
Result string: 1

Query string: Further, for CC(=O)NC[C@H]1CN(c2ccc(C3CCC(=O)NC3)cc2)C(=O)O1 (some centres unmarked) ?
Result string: 8

====

- Tested on: Saur 9213
Listing: MIC of selected compounds
Field format: number, assumed µg/mL, no unit text.

Please review the entries below; each comes with its answer.
[
  {
    "compound": "CC(=O)NC[C@H]1CN(c2ccc(C3CCC(=O)N(C)C3)cc2)C(=O)O1 (stereo partly shown)",
    "unit.spec": "µg/mL",
    "measured": 8
  },
  {
    "compound": "CCC(=O)NC[C@H]1CN(c2cc(F)c(C3CCNC(=O)C3)c(F)c2)C(=O)O1 (stereo partly shown)",
    "unit.spec": "µg/mL",
    "measured": 8
  },
  {
    "compound": "O=C1CC(c2c(F)cc(N3C[C@H](CNC(=S)C(F)F)OC3=O)cc2F)CCN1 (stereo partly shown)",
    "unit.spec": "µg/mL",
    "measured": 2
  }
]

Lab note: next compound to report on.
Query string: Which measured MIC value corresponds to O=C1CC(c2ccc(N3C[C@H](CNC(=S)C(F)F)OC3=O)cc2)CCN1 (stereo partly shown) ?
Result string: 1

====

Observed MIC for Saur 9213, reported per entry below.
Field format: number, assumed mg/L, no unit text.

[
  {
    "molecule": "O=C1CCC(c2ccc(N3C[C@H](CNC(=O)C(Cl)Cl)OC3=O)cc2)CN1 (stereo partly drawn) [Example 12]",
    "MIC, mg/L": 4
  },
  {
    "molecule": "O=C1CCC(c2ccc(N3C[C@H](CNC(=S)C(F)F)OC3=O)cc2)CN1 (stereo partly drawn) [Example 13]",
    "MIC, mg/L": 2
  },
  {
    "molecule": "CC(=O)NC[C@H]1CN(c2ccc(C3CCC(=O)NC3)c(F)c2)C(=O)O1 (stereo partly drawn) [Example 1]",
    "MIC, mg/L": 4
  },
  {
    "molecule": "CCC(=O)NC[C@H]1CN(c2ccc(C3CCC(=O)NC3)c(F)c2)C(=O)O1 (stereo partly drawn) [Example 2]",
    "MIC, mg/L": 4
  },
  {
    "molecule": "O=C1CCC(c2c(F)cc(N3C[C@H](CNC(=S)C(F)F)OC3=O)cc2F)CN1 (stereo partly drawn) [Example 8]",
    "MIC, mg/L": 1
  }
]

Lab note: next molecule to report on.
Query string: Value wanted: MIC (Saur 9213) of entry O=C1CCC(c2ccc(N3C[C@H](CNC(=O)C(Cl)Cl)OC3=O)cc2F)CN1 (stereo partly drawn) [Example 3]
Result string: 4
